- SUBJECT_OF_TEST: recombinant M. tuberculosis MshC (Mycobacterium tuberculosis, UniProt P9WJM9)
- Sequence (P9WJM9 whole entry, looked up): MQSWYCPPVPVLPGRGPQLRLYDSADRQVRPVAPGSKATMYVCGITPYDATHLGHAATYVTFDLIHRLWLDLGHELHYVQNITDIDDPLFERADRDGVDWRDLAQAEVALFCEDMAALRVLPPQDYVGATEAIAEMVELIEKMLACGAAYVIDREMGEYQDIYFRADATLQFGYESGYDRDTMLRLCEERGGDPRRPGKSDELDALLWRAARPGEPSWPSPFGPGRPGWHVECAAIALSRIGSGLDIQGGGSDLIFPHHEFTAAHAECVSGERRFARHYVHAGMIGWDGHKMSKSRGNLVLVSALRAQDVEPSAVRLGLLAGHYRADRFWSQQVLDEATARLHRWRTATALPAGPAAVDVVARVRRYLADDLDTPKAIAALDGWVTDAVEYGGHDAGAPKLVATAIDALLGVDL
- Format: biochemical
- CONDITION_DESCRIPTION: SAR discussion
MEASURED_QUANTITY: MshC inhibition, in words

>>> reported_value("CCN(CC)CCCNC(=O)c1ccc2c(c1)N(Cc1ccc(C)cc1C)C(=O)c1ccccc1[S+]2[O-] (centres unmarked) [Compound 41]")
"no measurable inhibition"
>>> reported_value("Cc1ccc(CN2C(=O)c3ccccc3S(=O)(=O)c3ccc(C(=O)NCCCN4CCOCC4)cc32)c(C)c1 [Compound 43]")
"no measurable inhibition"
